Test system: HepG2 (human hepatocellular carcinoma)
Protocol notes: Cytotoxic activity, MTT assay, HepG2
Assay type: cell-based
Measurement conditions: 72 h, mean ±SD
Protocol: The cytotoxic of compounds of formulas (I) and (II) 14-50 was assessed towards human cancer (HepG2, HeLa and Jurkat) cell lines (Table 3 below). Compounds presented on Table 4 were also tested against a non-tumoral liver cell line (Chang liver). The cell viability of HeLa, HepG2 and Chang liver cells was determined by the MTT assay. […] For the Jurkat cells, the cell viability was determined by the XTT assay. […]
Give IC50 for every item shown.

Completed entries (count: 2):
C=C(COC)[C@@H]1CC[C@]2(COC(=O)n3ccnc3C)CC[C@]3(C)[C@H](CC[C@@H]4[C@@]5(C)CC[C@H](OC(=O)n6ccnc6C)C(C)(C)[C@@H]5CC[C@]43C)[C@@H]12 ... 28.2 µM
C=C(COC)[C@@H]1CC[C@]2(COC(=O)n3ccnc3C)CC[C@]3(C)[C@H](CC[C@@H]4[C@@]5(C)CC[C@H](O)C(C)(C)[C@@H]5CC[C@]43C)[C@@H]12 ... 14.4 µM

Provide each entry's IC50 from the list below.
1. C=C(COC)[C@@H]1CC[C@]2(COC(=O)n3ccnc3)CC[C@]3(C)[C@H](CC[C@@H]4[C@@]5(C)CC[C@H](O)C(C)(C)[C@@H]5CC[C@]43C)[C@@H]12
2. C=C(C)[C@@H]1CC[C@]2(C(=O)n3ccnc3C)CC[C@]3(C)[C@H](CC[C@@H]4[C@@]5(C)CCC(=O)C(C)(C)[C@@H]5CC[C@]43C)[C@@H]12
3. C=C(C)[C@@H]1CC[C@]2(C(=O)OC)CC[C@]3(C)[C@H](CC[C@@H]4[C@@]5(C)CC[C@H](OC(=O)n6ccnc6)C(C)(C)[C@@H]5CC[C@]43C)[C@@H]12

1: 8.3 µM; 2: 5.5 µM; 3: 4.3 µM

----------
Test system: HepG2 (human hepatocellular carcinoma)
Protocol notes: Cytotoxic activity, MTT assay, HepG2
Format: cell-based
Measurement conditions: 72 h, mean ±SD
Hi there, I'd appreciate the recorded IC50 for every entry that follows.

C=C(C)[C@@H]1CC[C@]2(COC(=O)n3ccnc3C)CC[C@]3(C)[C@H](CC[C@@H]4[C@@]5(C)CC[C@H](OC(=O)n6ccnc6C)C(C)(C)[C@@H]5CC[C@]43C)[C@@H]12 ... > 30 µM
C=C(C)[C@@H]1CC[C@]2(COC(=O)n3ccnc3)CC[C@]3(C)[C@H](CC[C@@H]4[C@@]5(C)CC[C@H](OC(C)=O)C(C)(C)[C@@H]5CC[C@]43C)[C@@H]12 ... > 30 µM

// fetch IC50; item: `C=C(C)[C@@H]1CC[C@]2(COC(C)=O)CC[C@]3(C)[C@H](CC[C@@H]4[C@@]5(C)CC[C@H](OC(=O)n6ccnc6)C(C)(C)[C@@H]5CC[C@]43C)[C@@H]12` ; system: HepG2 (human hepatocellular carcinoma)
> 30 µM
